Test system: Klebsiella aerogenes DSM 30053
ASSAY COMMENT: growth (OD595) fold change vs plate DMSO controls (fold change (ratio)); higher = more growth
MEASUREMENT CONDITIONS: incubation time: 27 h, anaerobic, 37 °C
Counter-ions that a name gives are not always drawn.
Quick reference: growth of the listed items.
Would you mind answering with just the numeric figure?

Worked cases, answers included:
COc1ccc(CCN(C)CCCC(C#N)(c2ccc(OC)c(OC)c2)C(C)C)cc1OC (stereo not given) [Verapamil hydrochloride] (20 µM) :: 0.758
CCOC(=O)[C@H](CCc1ccccc1)N[C@@H](C)C(=O)N1C(=O)N(C)C[C@H]1C(=O)O [Imidapril hydrochloride] (20 µM) :: 1.05
CN(C)CCCC1(c2ccc(F)cc2)OCc2cc(C#N)ccc21 (stereo not given) [Citalopram hydrobromide] (20 µM) :: 0.994
Cc1onc(-c2ccccc2Cl)c1C(=O)N[C@@H]1C(=O)N2[C@@H]1SC(C)(C)[C@@H]2C(=O)O [Cloxacillin sodium salt] (20 µM) :: 1.08
CO/N=C(\C(=O)N[C@@H]1C(=O)N2C(C(=O)O)=C(COC(C)=O)CS[C@H]12)c1csc(N)n1 [Cefotaxime sodium salt] (20 µM) :: 0.601

Give the reported growth for CC(NCCc1ccc(O)cc1)C(O)c1ccc(O)cc1 (stereo not given) [Ritodrine hydrochloride] (20 µM) (system: Klebsiella aerogenes DSM 30053).
0.985
